# pEC50 annotations
target: cynomolgus monkey STING protein (Macaca fascicularis, UniProt A0A2R3XZA6); test: Luciferase reporter assay, cynomolgus monkey STING overexpressed in HEK293T cells; type: cell-based; conditions: cynomolgus monkey STING overexpressed in HEK293T cells; read-out: Cynomolgus monkey STING activity (EC50 range)
Sequence (A0A2R3XZA6 entry or part of it): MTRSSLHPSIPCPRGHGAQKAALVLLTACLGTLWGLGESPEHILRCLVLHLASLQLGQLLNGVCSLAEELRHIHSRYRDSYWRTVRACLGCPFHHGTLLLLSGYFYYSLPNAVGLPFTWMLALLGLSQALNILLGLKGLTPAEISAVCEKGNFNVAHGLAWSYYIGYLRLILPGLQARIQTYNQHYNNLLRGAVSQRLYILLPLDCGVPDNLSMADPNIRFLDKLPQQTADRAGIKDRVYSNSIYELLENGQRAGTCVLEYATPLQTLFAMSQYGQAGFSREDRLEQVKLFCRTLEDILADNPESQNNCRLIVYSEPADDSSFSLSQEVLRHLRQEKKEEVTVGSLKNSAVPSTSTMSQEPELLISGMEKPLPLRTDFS
pEC50: −log10 of the molar value.

Observe how each entry below is paired with its result.
C[C@H]1c2ccc(C(=O)NCc3c(F)cc(F)cc3F)cc2N(Cc2c(F)cc(OC[C@@H](O)CO)cc2F)C(=O)N1C [Example 147]; > 6.00
C[C@H]1c2ccc(C(=O)NCc3c(F)cc(F)cc3F)cc2N(Cc2cc(OCCCO)cc(F)c2F)C(=O)N1C [Example 283]; 5.00 to 6.00
C=CCOc1cc(F)c(CN2C(=O)N(C)[C@@H](C)c3ccc(C(=O)NCc4c(F)cc(F)cc4F)cc32)c(F)c1 [Example 144]; > 6.00
C[C@H]1c2ccc(C(=O)NCc3c(F)cc(F)cc3F)cc2N(Cc2c(F)cc(O)cc2Cl)C(=O)N1C [Example 298]; > 6.00
COc1ccc(F)c(F)c1CN1C(=O)N(C)[C@@H](C)c2ccc(C(=O)NCc3c(F)cc(F)cc3F)cc21 [Example 241]; > 6.00
C[C@H]1c2ccc(C(=O)NCc3c(F)cc(F)cc3F)cc2N(Cc2c(F)ccc(OCCCO)c2Cl)C(=O)N1C [Example 138]; > 6.00

Consider the additional compound presented here.
Item under review: C[C@H]1c2ccc(C(=O)NCc3c(F)cc(F)cc3F)cc2N(Cc2c(F)ccc(OCCCOP(=O)(O)O)c2Cl)C(=O)N1C [Example 96] . Reported pEC50?
< 5.00

====

target: hSTING(R232) (Homo sapiens, UniProt Q86WV6, H232R); experiment: Luciferase reporter assay in HEK293T-hSTING-Luciferase cells, R232 (wild type) human STING; assay type: cell-based; settings: 20 hr stimulation, read-out: R232 human activity (EC50 range)
Sequence (Q86WV6 whole entry H232R): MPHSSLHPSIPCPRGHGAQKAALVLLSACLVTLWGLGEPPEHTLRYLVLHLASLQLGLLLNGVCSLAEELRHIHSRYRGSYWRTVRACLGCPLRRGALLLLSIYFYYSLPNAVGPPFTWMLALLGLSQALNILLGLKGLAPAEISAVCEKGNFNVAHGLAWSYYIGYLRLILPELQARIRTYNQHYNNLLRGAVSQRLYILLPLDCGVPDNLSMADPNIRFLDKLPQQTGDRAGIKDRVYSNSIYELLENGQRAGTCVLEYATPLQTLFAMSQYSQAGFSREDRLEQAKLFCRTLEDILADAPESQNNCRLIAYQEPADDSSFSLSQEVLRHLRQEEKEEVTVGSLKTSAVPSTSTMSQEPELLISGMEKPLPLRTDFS
Assay endpoint: EC50

CN1Cc2ccc(C(=O)NCc3c(F)cc(F)cc3F)cc2N(Cc2cc(C3CC3)no2)C1=O; > 10 µM
C[C@H]1c2ccc(C(=O)NCc3c(F)cc(F)cc3F)cc2N(Cc2c(N)cccc2F)C(=O)N1C; < 1 µM

Name the recorded EC50 for COc1cccc(F)c1CNC(=O)c1ccc2c(c1)N(Cc1c(F)cccc1Cl)C(=O)N(C)C2 .
> 10 µM

Recorded EC50 of COc1cc(F)c(CNC(=O)c2ccc3c(c2)N(Cc2c(F)cccc2Cl)C(=O)N(C)C3)c(F)c1 , please.
1 to 10 µM

// EC50 lookup, key: CN1Cc2ccc(C(=O)NCc3ccc(F)cc3F)cc2N(Cc2cc(F)cc(F)c2)C1=O
< 1 µM

Which EC50 is listed for C[C@H]1c2ccc(C(=O)NCc3ccc(F)cc3O)cc2N(Cc2c(F)cccc2Cl)C(=O)N1C ?
1 to 10 µM

Any idea what its EC50 is? The compound is C[C@H]1c2ccc(C(=O)NCc3c(F)cc(F)cc3F)cc2N(Cc2cc(OCCO)ccc2F)C(=O)N1C
< 1 µM

Would you mind telling me what EC50 value was observed for O=C(NCc1c(F)cc(F)cc1F)c1ccc2c(c1)N(Cc1cc(F)cc(F)c1)C(=O)N(C1CC1)C2 ?
> 10 µM

Fill in: EC50 of C[C@H]1c2ccc(C(=O)NCc3c(F)cc(F)cc3F)cc2N(Cc2c(F)ccc(OCCOP(=O)(O)O)c2F)C(=O)N1C is ___
< 1 µM

Recorded EC50 of CC1c2ccc(C(=O)NCc3c(F)cc(F)cc3F)cc2N(Cc2ccccc2F)C(=O)N1C (stereo not drawn) [Example 202] , please.
< 1 µM

Origin of values: patent US11571423B2
